Measured protein stability index accompanies every entry in the list below.
B1: NECAB1 (parent)
chain: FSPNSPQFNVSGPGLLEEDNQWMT

# Variants of: B1
# Protocol Summary: protein stability index of a GFP-peptide fusion (GPS, HEK-293T) (PSI 1-6); higher = more stable;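 also: lentivirally expressed fusions sorted by FACS into six bins by GFP to DsRed ratio, PSI derived from sequencing read proportions per bin multiplied by bin number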
# Measurement Conditions: c terminus: a fixed tail appended
Measured Parameter: protein stability index

>  <Mutant Id>
E17H

>  <Measured Parameter>
protein stability index

>  <Quantitative Readout>
2.72

$$$$
>  <Mutant Id>
G14E

>  <Measured Parameter>
protein stability index

>  <Quantitative Readout>
3.58

$$$$
>  <Mutant Id>
S11A

>  <Measured Parameter>
protein stability index

>  <Quantitative Readout>
3.02

$$$$
>  <Mutant Id>
W22K

>  <Measured Parameter>
protein stability index

>  <Quantitative Readout>
3.54

$$$$
>  <Mutant Id>
F1Y

>  <Measured Parameter>
protein stability index

>  <Quantitative Readout>
3.25

$$$$
>  <Mutant Id>
L15V

>  <Measured Parameter>
protein stability index

>  <Quantitative Readout>
3.23

$$$$
>  <Mutant Id>
G12F

>  <Measured Parameter>
protein stability index

>  <Quantitative Readout>
2.21

$$$$
>  <Mutant Id>
F8K

>  <Measured Parameter>
protein stability index

>  <Quantitative Readout>
3.78

$$$$
>  <Mutant Id>
N20R

>  <Measured Parameter>
protein stability index

>  <Quantitative Readout>
2.88

$$$$
>  <Mutant Id>
T24Y

>  <Measured Parameter>
protein stability index

>  <Quantitative Readout>
2.57

$$$$
>  <Mutant Id>
Q7W

>  <Measured Parameter>
protein stability index

>  <Quantitative Readout>
2.64

$$$$
>  <Mutant Id>
T24I

>  <Measured Parameter>
protein stability index

>  <Quantitative Readout>
2.69

$$$$
>  <Mutant Id>
V10S

>  <Measured Parameter>
protein stability index

>  <Quantitative Readout>
3.19

$$$$
>  <Mutant Id>
S11C

>  <Measured Parameter>
protein stability index

>  <Quantitative Readout>
2.54

$$$$
>  <Mutant Id>
Q21S

>  <Measured Parameter>
protein stability index

>  <Quantitative Readout>
2.15

$$$$
>  <Mutant Id>
L15N

>  <Measured Parameter>
protein stability index

>  <Quantitative Readout>
3.27

$$$$
>  <Mutant Id>
Q7G

>  <Measured Parameter>
protein stability index

>  <Quantitative Readout>
2.74

$$$$
>  <Mutant Id>
W22R

>  <Measured Parameter>
protein stability index

>  <Quantitative Readout>
3.93

$$$$
>  <Mutant Id>
P3T

>  <Measured Parameter>
protein stability index

>  <Quantitative Readout>
3.05

$$$$
>  <Mutant Id>
T24V

>  <Measured Parameter>
protein stability index

>  <Quantitative Readout>
2.36

$$$$
>  <Mutant Id>
G14K

>  <Measured Parameter>
protein stability index

>  <Quantitative Readout>
2.3

$$$$
>  <Mutant Id>
P3D

>  <Measured Parameter>
protein stability index

>  <Quantitative Readout>
2.24

$$$$
>  <Mutant Id>
P13F

>  <Measured Parameter>
protein stability index

>  <Quantitative Readout>
2.29

$$$$
>  <Mutant Id>
P6C

>  <Measured Parameter>
protein stability index

>  <Quantitative Readout>
2.26

$$$$
